EXPERIMENT NOTES: xn = mol fraction of the nth substance listed
TEST CONTEXT: 288.15 K, x1 = 0.95
Measured surface tension liquid-gas values are reported for all entries that follow.
Report the figure in mN/m without appending any unit label.

# count of solved cases: 4
>  <MOLECULE>
CCCC(=O)OCCC(C)C [3-methylbutyl butanoate] + CCO

>  <surface tension liquid-gas [mN/m]>
25.6

$$$$
>  <MOLECULE>
CCCCCC(=O)OCC [ethyl hexanoate] + CCO

>  <surface tension liquid-gas [mN/m]>
26.3

$$$$
>  <MOLECULE>
CCOC(=O)Cc1ccccc1 [ethyl phenylacetate] + CCO

>  <surface tension liquid-gas [mN/m]>
35.3

$$$$
>  <MOLECULE>
CC(=O)OCCC(C)C [3-methylbutyl ethanoate] + CCO

>  <surface tension liquid-gas [mN/m]>
25.3

$$$$

Short answer for CCOC(=O)c1ccccc1 [ethyl benzoate] + CCO : surface tension liquid-gas was 35

surface tension liquid-gas for CCCCCCCC(=O)OCC [ethyl octanoate] + CCO is 27.1
